The reader will find reported pKd values listed item by item below.
- test-system: MAGI3_2, Q5TCQ9
- Sequence (Q5TCQ9 398-503): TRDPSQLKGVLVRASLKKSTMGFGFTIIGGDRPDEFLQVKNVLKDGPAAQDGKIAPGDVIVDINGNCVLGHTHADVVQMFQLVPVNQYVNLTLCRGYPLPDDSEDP
- assay: holdup assay
- Design: key: below the threshold = too weak to quantify, mostly under pKd 3.1 to 4
- assay-conditions: plain residues with an end cap or a label only (N-terminal biotin on a linker: ado-ado)

binder: LPHPHSTTRV [NLGN2, Q8NFZ4]
pKd: 5.12
//
binder: LRSPRTPSEV [OR10G3, Q8NGC4]
pKd: 4.4

These entries and their values trace back to paper PMC9482650.
